Molecular target: human ether-à-go-go-related gene (hERG) potassium channel (human);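 note: peak tail current of the secondary pulse compared with the same well before compound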
Assay: primary screen, population patch clamp on CHO cells stably expressing hERG; higher = less effect of the substance
Protocol: Briefly, Chinese hamster ovary (CHO) cells stably expressing the hERG channel were dislodged from tissue culture flasks and dispensed into PPC plates. […] During the recording, background leak currents were estimated by a 100 ms step to -80 mV from an initial holding potential of -70 mV and subtracted from the subsequent current measurement. The campaign was conducted in two phases using slight differences in recording protocol. […]
The campaign covered roughly 310,000 compounds. About 14,000 (4.5%) showed an effect of 50% or more. Effects have a minus sign here. The sample holds strong results, similar compounds and a random draw of the others, so the mix is not that of the screen.
Would you kindly list hERG current change (%, negative = inhibition) at 10uM for each of these compounds?
Numeric answer only, unit % assumed.

**Query** Entry CCC1CCCCN1CCCCOc1cccc(Cl)c1.O=C(O)C(=O)O (stereo not shown) has what hERG current change (%, negative = inhibition) at 10uM?
**Result** -72

**Query** For CCN1CCN(CCOCCOc2ccccc2)CC1.O=C(O)C(=O)O , what is its reported hERG current change (%, negative = inhibition) at 10uM?
**Result** 10.8

**Query** Which hERG current change (%, negative = inhibition) at 10uM reading was recorded for the compound Cn1c(SCC(N)=O)nnc1C1CCN(S(=O)(=O)c2ccccc2C(F)(F)F)CC1 ?
**Result** 13.3

**Query** What measured hERG current change (%, negative = inhibition) at 10uM goes with CCc1cc(S(=O)(=O)N2CCN(C(=O)c3ccco3)CC2)ccc1OC ?
**Result** 1.76

**Query** Give its hERG current change (%, negative = inhibition) at 10uM value. Item: CCc1nnc(NC(=O)CSc2nnc(-c3cccnc3)n2C)s1
**Result** 13.6

**Query** Name the reported hERG current change (%, negative = inhibition) at 10uM value associated with the compound CC1CCCN(CCCCOc2cccc(Br)c2)C1.O=C(O)C(=O)O (stereo not shown)
**Result** -69

**Query** Requested field: hERG current change (%, negative = inhibition) at 10uM. Item: CN(CCCC1CCCC1)C(=O)CCc1nnc(-c2ccccc2)o1
**Result** -22.7

**Query** Endpoint output: hERG current change (%, negative = inhibition) at 10uM of O=[N+]([O-])c1ccc(N2CCN(c3ccc(O)cc3)CC2)c(Cl)c1 . Value?
**Result** -3.4

**Query** Given the compound CC(C)c1cccc(OCCCCN(C)C)c1.O=C(O)C(=O)O , what is its reported hERG current change (%, negative = inhibition) at 10uM?
**Result** -14.1

**Query** Item Clc1cccc(OCCN2CCOCC2)c1.O=C(O)C(=O)O has what recorded hERG current change (%, negative = inhibition) at 10uM?
**Result** -2.27

* * *

Please respond with reported hERG current change (%, negative = inhibition) at 10uM for every item in the list.
target: human ether-à-go-go-related gene (hERG) potassium channel (human); assay: primary screen, population patch clamp on CHO cells stably expressing hERG; higher = less effect of the substance;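 note: peak tail current of the secondary pulse compared with the same well before compound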
Hit rate of the full screen: of about 310,000 compounds, about 14,000 (4.5%) showed an effect of 50% or more. The effect is printed as a negative number. The full list was thinned out, with strong results kept by preference.
Lab book: enter the figure in %, no units written.

**Query** Requested read-out: hERG current change (%, negative = inhibition) at 10uM. Entry: CC(C)n1c(O)c(N=NC(=O)C2COc3ccccc3O2)c2ccccc21 (centres unmarked)
**Result** 12.4

**Query** Item O=c1cc(-c2ccccc2)[nH]c2ccc(F)cc12 has what recorded hERG current change (%, negative = inhibition) at 10uM?
**Result** 5.52

**Query** # query: hERG current change (%, negative = inhibition) at 10uM of entry OCC[C@H]1C[C@H](O)[C@@H](O)[C@@]2(OCc3ccccc32)O1
**Result** 8.35

**Query** Sample C/C(=N\Nc1ccccc1C(=O)O)c1ccncc1 — what was its hERG current change (%, negative = inhibition) at 10uM?
**Result** 0.449

**Query** Recorded hERG current change (%, negative = inhibition) at 10uM for CCCCc1cc(C)c(S(=O)(=O)c2ccccc2C)c(=O)[nH]1 , please?
**Result** 3.69

**Query** For the molecule shown here, CN1CCN(C(=O)c2ccc3c(c2)NC(=O)C(N2CCOCC2)S3)CC1 (centres unmarked) , give the reported hERG current change (%, negative = inhibition) at 10uM.
**Result** 3.85

**Query** I am curious: what hERG current change (%, negative = inhibition) at 10uM value has been reported for CCn1c(COc2ccc(OC)cc2)nc2ccccc21 ?
**Result** -19.8

**Query** GET /values?readout=hERG current change (%, negative = inhibition) at 10uM&item= c1csc(CNc2ncnc3nc[nH]c23)c1
**Result** -2.79

**Query** Data request, read-out hERG current change (%, negative = inhibition) at 10uM, for CC(C)C(=O)Nc1nnc(Cc2c[nH]c3ccccc23)s1
**Result** 28

**Query** Report hERG current change (%, negative = inhibition) at 10uM for COCCNC(=O)c1onc(CSc2ccccc2)c1C(=O)O please.
**Result** 7.09

**Query** Bench note: what hERG current change (%, negative = inhibition) at 10uM did COc1cc(Br)c(CN2CCCN(C)CC2)cc1OC show?
**Result** -0.597

* * *

Record form. Attribute: hERG current change (%, negative = inhibition) at 10uM. Fill in for each entry.
biological target: human ether-à-go-go-related gene (hERG) potassium channel (human, UniProt Q12809); experiment: primary screen, population patch clamp on CHO cells stably expressing hERG; higher = less effect of the substance;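 note: peak tail current of the secondary pulse compared with the same well before compound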
Sequence (Q12809 whole entry, looked up): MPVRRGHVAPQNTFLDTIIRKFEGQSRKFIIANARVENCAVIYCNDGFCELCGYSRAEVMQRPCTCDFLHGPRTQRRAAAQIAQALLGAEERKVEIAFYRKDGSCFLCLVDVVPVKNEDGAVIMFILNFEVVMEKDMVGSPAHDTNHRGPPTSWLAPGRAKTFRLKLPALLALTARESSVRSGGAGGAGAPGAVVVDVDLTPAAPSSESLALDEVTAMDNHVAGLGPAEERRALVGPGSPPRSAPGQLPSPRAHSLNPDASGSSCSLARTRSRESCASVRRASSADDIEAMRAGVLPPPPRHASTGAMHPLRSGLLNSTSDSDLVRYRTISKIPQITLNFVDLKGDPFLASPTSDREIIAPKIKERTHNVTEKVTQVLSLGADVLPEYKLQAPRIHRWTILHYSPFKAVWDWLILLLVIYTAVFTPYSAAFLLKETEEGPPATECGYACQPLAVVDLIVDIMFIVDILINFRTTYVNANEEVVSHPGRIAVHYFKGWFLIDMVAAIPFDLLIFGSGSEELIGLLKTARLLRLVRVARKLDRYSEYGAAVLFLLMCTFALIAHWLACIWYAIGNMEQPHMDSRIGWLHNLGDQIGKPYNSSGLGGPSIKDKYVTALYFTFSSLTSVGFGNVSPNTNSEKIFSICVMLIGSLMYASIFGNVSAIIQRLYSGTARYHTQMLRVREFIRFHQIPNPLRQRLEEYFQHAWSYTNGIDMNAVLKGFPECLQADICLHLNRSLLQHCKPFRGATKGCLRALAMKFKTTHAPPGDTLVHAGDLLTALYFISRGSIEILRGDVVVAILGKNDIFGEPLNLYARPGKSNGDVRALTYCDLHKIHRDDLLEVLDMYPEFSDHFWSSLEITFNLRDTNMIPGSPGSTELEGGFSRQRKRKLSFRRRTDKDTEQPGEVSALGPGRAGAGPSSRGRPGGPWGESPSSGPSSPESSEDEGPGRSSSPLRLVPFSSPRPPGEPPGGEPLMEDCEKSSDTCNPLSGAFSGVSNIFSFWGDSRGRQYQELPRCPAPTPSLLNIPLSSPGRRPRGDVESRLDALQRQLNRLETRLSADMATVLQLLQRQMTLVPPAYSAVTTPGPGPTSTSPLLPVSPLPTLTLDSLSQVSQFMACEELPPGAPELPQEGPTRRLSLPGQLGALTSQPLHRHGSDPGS
About 14,000 (4.5%) of roughly 310,000 compounds showed an effect of 50% or more. The effect is printed as a negative number. The list comes from a sample in which strong results are over-represented; it also holds close analogues and randomly drawn compounds.
A number alone suffices; assume %.

**Query** # get_value(readout= hERG current change (%, negative = inhibition) at 10uM, system= human ether-à-go-go-related gene (hERG) potassium channel (human, UniProt Q12809)) for Cc1ccc(N=Nc2c(O)n(CN3CCOCC3)c3ccccc23)cc1;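 note: peak tail current of the secondary pulse compared with the same well before compound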
**Result** 3.48

**Query** Notebook: pull reported hERG current change (%, negative = inhibition) at 10uM for human ether-à-go-go-related gene (hERG) potassium channel (human, UniProt Q12809), entry O=C(CSc1ccc(-c2ccc(F)cc2)nn1)N1CCOCC1
**Result** -17.4

**Query** Notebook entry, human ether-à-go-go-related gene (hERG) potassium channel (human, UniProt Q12809) assay: hERG current change (%, negative = inhibition) at 10uM of CCc1ccc(NS(=O)(=O)c2ccc3oc(=O)ccc3c2)cc1 = ?
**Result** -1.91

**Query** Form field: hERG current change (%, negative = inhibition) at 10uM recorded for O=C(COc1ncnc2sccc12)N1CCc2ccccc2C1 with human ether-à-go-go-related gene (hERG) potassium channel (human, UniProt Q12809) (enter value)
**Result** 0.518

**Query** State its hERG current change (%, negative = inhibition) at 10uM on human ether-à-go-go-related gene (hERG) potassium channel (human, UniProt Q12809): O=c1nc(N2CCOCC2)ccn1-c1nc(-c2ccccc2)oc1-c1ccccc1
**Result** -9.71

Sourced from paper PMC4336329
